src = PubChem BioAssay AID1159580

assay: chemical genetic growth profiling, strain panel (AID 1159580);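 also: tested at 20 µM; growth read once vehicle control cultures reached saturation at 30 °C; 1 = growth at the plate median or of vehicle wells; lower values mean less growth of the strain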; settings: S. cerevisiae deletion strains, growth OD, locus YHR082C, strain KSP1, active compounds read low
In all, about 5,500 compounds went through this assay and about 2,000 (36%) were called active. About 18% were inconclusive and are not listed. The list shows a part of the results.
Assay Readout: normalized growth
# respond with the number and nothing more

Sample Nc1ccccc1C(=O)N/N=C\c1cc(Br)ccc1O — what was its normalized growth?
1.02

Try this molecule next: CSc1n[nH]c(-c2cc(C(F)(F)F)cc(C(F)(F)F)c2)n1
0.914

Try this molecule next: O=C(NCC1COc2ccccc2O1)c1ccc(Cl)cc1 (configuration not stated)
0.88

Try this molecule next: O=C(NCCNc1ncc(C(F)(F)F)cc1Cl)C(F)(F)Sc1ccccc1
1

Try this molecule next: O=C(CSCc1csc2ccccc12)Nc1ccc(F)c(Cl)c1
0.896

Try this molecule next: Cc1csc(NC(=O)Nc2ccc(C(F)(F)F)cc2)c1
0.893

Try this molecule next: O=C(N/N=C\c1cc(Br)ccc1O)c1ccccc1Oc1ccccc1
0.924

====

test: chemical genetic growth profiling, strain panel (AID 1159580); details: S. cerevisiae deletion strains, growth OD, locus YGL173C, strain kem1, active compounds read low
The whole screen tested about 5,500 compounds, of which about 2,000 (36%) were called active. Not shown: some 18% with an inconclusive outcome. This is one part of the list.
Assay Readout: normalized growth
# respond with the number and nothing more

Sample CC(C)(Oc1ccc(CCNC(=O)c2ccc(Cl)cc2)cc1)C(=O)O — what was its normalized growth?
1

Try this compound next: C[C@]12CCC(=O)C=C1CCC1C2[C@@H](O)C[C@@]2(C)C1CC[C@]2(O)C(=O)CO (stereo not given in full)
0.975

Try this compound next: CCOC(=O)OC(C)OC(=O)C1N2C(=O)C(NC(=O)[C@H](N)c3ccccc3)C2SC1(C)C (stereo not given in full)
0.975

Try this compound next: Cc1ccc(S(=O)(=O)NC(=O)NN2CC3CCCC3C2)cc1 (stereo not given)
1

Try this compound next: Cc1ccc(-c2cc(C(F)(F)F)nn2-c2ccc(S(N)(=O)=O)cc2)cc1
1.01

====

experiment: chemical genetic growth profiling, strain panel (AID 1159580);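 also: tested at 20 µM; growth read once vehicle control cultures reached saturation at 30 °C; 1 = growth at the plate median or of vehicle wells; lower values mean less growth of the strain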; settings: S. cerevisiae deletion strains, growth OD, locus YDR150W, strain NUM1
Hit rate of the full screen: of about 5,500 compounds, about 2,000 (36%) were called active. Not shown: some 18% with an inconclusive outcome. Rule as the data show it: active = normalized growth mostly below about 0.91 (no sharp cut-off); inconclusive = no clear call, values can overlap the other calls; inactive = mostly above about 0.92. Some of the results follow.
Allowed answers: yes for active, no for inactive

Please indicate how the test categorized CC(C)(C)OC(=O)C(C)(C)S(=O)(=O)c1ccc(Cl)cc1 .
no

Try this compound next: O=C(NC1Cc2ccccc2C1)c1cncc(Br)c1
no

Try this compound next: CC(C)CC(N(C)C)C1(c2ccc(Cl)cc2)CCC1 (configuration not stated)
no

Try this compound next: O=C(CSCc1c(F)cccc1Cl)NC1Cc2ccccc2C1
no

Try this compound next: O=C(Nc1ccc(Br)cc1Cl)C(Cl)(Cl)Cl
no

Try this compound next: CC(OCc1ccccc1)C(NC(=O)OC(C)(C)C)C(N)=O (configuration not stated)
no

Try this compound next: O=[N+]([O-])c1cnc(Sc2n[nH]c(-c3cccs3)n2)s1
yes

Try this compound next: Cc1ccc(-c2cc(C(F)(F)F)nn2-c2ccc(S(N)(=O)=O)cc2)cc1
no

Try this compound next: COc1ccc(NC(=O)C(C)c2ccc(CC(C)C)cc2)cc1 (configuration not stated)
no

Try this compound next: COc1cccc(OC)c1OCCNCC1COc2ccccc2O1 (configuration not stated)
no

Try this compound next: CCOP(=S)(OCC)Oc1cc(C)nc(C(C)C)n1
no

Try this compound next: CN=c1nc(-c2ccccc2)n(-c2ccccc2)s1
no

Try this compound next: O=C(O)C1CCCN(CCC=C(c2ccccc2)c2ccccc2)C1 (configuration not stated)
no

Try this compound next: CC1C(=O)N(C)C(=O)c2nc[nH]c21 (configuration not stated)
no

Try this compound next: Cn1ccnc1
no

Try this compound next: O=C(NC1CCN(Cc2ccc(Cl)c(Cl)c2)CC1)c1ccccc1
no

Try this compound next: O=c1cc(CO)occ1O
no

Try this compound next: Cc1noc(C)c1-c1nc(-c2cc(C(F)(F)F)cc(C(F)(F)F)c2)no1
no

Try this compound next: CO[C@@]12[C@@H]3NC3CN1C1=C(C(=O)C(N)=C(C)C1=O)[C@@H]2COC(N)=O (some centres not stated)
no

Try this compound next: CS/C(N)=N\N=C/c1c(F)cccc1Cl
no

Try this compound next: Oc1ccc2c3c1O[C@H]1[C@@H](O)CC[C@@]4(O)C(C2)N(CC2CCC2)CCC314 (some centres not stated)
no

Try this compound next: CCOC(=O)c1ccc2[nH]c(-c3ccccc3)cc(=O)c2c1
no

Try this compound next: Cc1c(Br)sc2ccc(Cl)cc12
no

Try this compound next: C[C@@H]1O[C@@H](O[C@H]2C[C@@H](O)[C@]3(CO)[C@@H]4C(CC[C@]3(O)C2)[C@@]2(O)CC[C@H](C3COC(=O)C3)[C@@]2(C)C[C@H]4O)[C@H](O)[C@H](O)[C@H]1O (some centres not stated)
no

Try this compound next: CCOC(=O)c1nc(-c2ccccc2)sc1C(=O)OCC
no

Try this compound next: O=C(O)CSCC(=O)NC1CCN(Cc2ccccc2)CC1
no

Try this compound next: O=C1C(O)=C(O)C(=O)C(O)=C1O
no

====

assay: chemical genetic growth profiling, strain panel (AID 1159580);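 also: tested at 20 µM; growth read once vehicle control cultures reached saturation at 30 °C; 1 = growth at the plate median or of vehicle wells; lower values mean less growth of the strain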; settings: S. cerevisiae deletion strains, growth OD, locus YNL248C, strain rpa49, active compounds read low
Hit rate of the full screen: of about 5,500 compounds, about 2,000 (36%) were called active. About 18% were inconclusive and are not listed. The list shows a part of the results.
Assay Readout: normalized growth

Sample CC1(C)CC[C@]2(C(=O)O)CC[C@]3(C)C(=CCC4[C@@]5(C)CC[C@@H](O)C(C)(C)C5CC[C@]43C)C2C1 (some centres undefined) — what was its normalized growth?
1.01 (inactive)

Try this compound next: COC(=O)C[C@H]1C(C)(C)C2(O)OC34CC2C(=O)[C@]1(C)C3CC[C@]1(C)C4=CC(=O)O[C@H]1c1ccoc1 (some centres undefined)
1 (inactive)

Try this compound next: COc1cccc2c1C(=O)c1c(O)c3c(c(O)c1C2=O)C[C@@](O)(C(=O)CO)C[C@@H]3OC1C[C@H](N)[C@H](O)[C@H](C)O1 (some centres undefined)
0.107 (active)

Try this compound next: CC(=O)/C=C\[C@@H]1[C@@]2(C)CCCC(C)(C)C2CC[C@@]1(C)O (some centres undefined)
0.952 (inactive)

====

test: chemical genetic growth profiling, strain panel (AID 1159580);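 also: tested at 20 µM; growth read once vehicle control cultures reached saturation at 30 °C; 1 = growth at the plate median or of vehicle wells; lower values mean less growth of the strain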; settings: S. cerevisiae deletion strains, growth OD, locus YPR141C, strain kar3, active compounds read low
Hit rate of the full screen: of about 5,500 compounds, about 2,000 (36%) were called active. About 18% were inconclusive and are not listed. This is one part of the list. Where a SMILES comes first, the peptide text is derived from it. The star is where a group is joined. For = O=C*
Assay Readout: normalized growth
# respond with the number and nothing more

Sample CC(C)=CCCC1(C)C=Cc2c(O)c3c(c(CC=C(C)C)c2O1)OC12C(=CC4CC1C(C)(C)OC2(C/C=C(/C)C(=O)O)C4=O)C3=O (configuration not stated) — what was its normalized growth?
0.982

Try this compound next: CSCCC(NC=O)C(=O)NC(Cc1ccccc1)C(=O)O (stereo not drawn) (For-Met-Phe-OH; configuration not given here)
1.01

Try this compound next: O=C1c2c(O)cccc2Cc2cccc(O)c21
0.993

Try this compound next: CC1C(=O)OC2C1CCC1(C)C=CC(=O)C3(C)OC213 (configuration not stated)
0.998

Try this compound next: OC(CCN1CCCCC1)(c1ccccc1)C1CCCCC1 (configuration not stated)
1.01

Try this compound next: CC1(C)CC[C@]2(C)CC[C@]3(C)C(=CCC4[C@@]5(C)CC[C@H](O)C(C)(C)C5CC[C@]43C)C2C1 (some centres not stated)
0.971

Try this compound next: CC(C)=CCCC1(C)C=Cc2c(O)c3c(c(CC=C(C)C)c2O1)OC12C(=CCCC1C(C)(C)O[C@@]2(C/C=C(\C)C(=O)O)C(=O)O)C3=O (some centres not stated)
0.962

Try this compound next: CC1(C)CC[C@]2(C(=O)O)CC[C@]3(C)C(=CCC4[C@@]5(C)CC[C@@H](O)C(C)(C)C5CC[C@]43C)C2C1 (some centres not stated)
1.02

Try this compound next: COc1cccc(OC)c1OCCNCC1COc2ccccc2O1 (configuration not stated)
0.987

Try this compound next: C#C[C@]1(O)CCC2C3CCC4=C(CCC(=O)C4)C3CC[C@@]21C (some centres not stated)
1.01

Try this compound next: CC1(C)CC[C@@]2(C(=O)O)C(C1)C1=CCC3[C@@]4(C)CC[C@H](O)C(C)(C)C4CC[C@@]3(C)[C@]1(C)C[C@@H]2O (some centres not stated)
1.05

Try this compound next: C/C=C1\[C@H]2C=C(C)C[C@]1(N)c1ccc(=O)[nH]c1C2
1.01

Try this compound next: COc1ccc2c(c1)c(CC(=O)OCC(=O)O)c(C)n2C(=O)c1ccc(Cl)cc1
1.02

Try this compound next: C[C@H]1[C@H](C)CC[C@]2(CO)CC[C@]3(C)C(=CCC4[C@@]5(C)CC[C@H](O)C(C)(C)C5CC[C@]43C)[C@H]12 (some centres not stated)
1.04

Try this compound next: Cc1ccc(-c2cc(C(F)(F)F)nn2-c2ccc(S(N)(=O)=O)cc2)cc1
1

Try this compound next: O=C(COc1ccc(Cl)cc1)N1CCN(Cc2ccc3c(c2)OCO3)CC1
0.988

Try this compound next: Cc1ccc(S(=O)(=O)NC(=O)NN2CC3CCCC3C2)cc1 (configuration not stated)
1.03

Try this compound next: Cc1cn([C@H]2C[C@H](N=[N+]=[N-])[C@@H](CO)O2)c(=O)[nH]c1=O
1.01

Try this compound next: CCOC(=O)OC(C)OC(=O)C1N2C(=O)C(NC(=O)[C@H](N)c3ccccc3)C2SC1(C)C (some centres not stated)
0.978

Try this compound next: CC(=O)OC1CC[C@@]2(C)C(CC[C@]3(C)C2CCC2C4CC(C)(C)CCC4(C(=O)O)CC[C@]23C)C1(C)C (some centres not stated)
0.975

Try this compound next: C[C@@H]1OC(O[C@H]2[C@H](O)[C@@H](O)[C@H](OC[C@H]3O[C@@H](OC(=O)[C@]45CCC(C)(C)CC4C4=CCC6[C@@]7(C)CC[C@H](OC8OC[C@H](O)[C@H](O)[C@H]8OC8O[C@@H](C)[C@H](O)[C@@H](O)[C@H]8O)[C@@](C)(CO)C7CC[C@@]6(C)[C@]4(C)CC5)[C@H](O)[C@@H](O)[C@@H]3O)O[C@@H]2CO)[C@H](O)[C@H](O)[C@H]1O (some centres not stated)
0.982

Try this compound next: Cc1cc(O)c2c(c1)Cc1cccc(O)c1C2=O
1.02

Try this compound next: Cc1ccnc(NS(=O)(=O)c2ccc(N)cc2)n1
1.03

Try this compound next: CC1(C)CC[C@]2(C(=O)O)CC[C@]3(C)C(=CCC4[C@@]5(C)CC[C@H](O)[C@@](C)(CO)C5CC[C@]43C)C2C1 (some centres not stated)
0.986

Try this compound next: CC(=O)Nc1ccc(OCC(O)CNC(C)C)cc1 (configuration not stated)
0.985

Try this compound next: C[C@@H]1C(=O)O[C@H]2[C@H]1CC[C@@]1(C)C=CC(=O)[C@@]3(C)O[C@@]213
1.02

Try this compound next: COC(=O)Nc1nc2ccc(C(=O)c3ccccc3)cc2[nH]1
1.03

Try this compound next: CCOP(=S)(OCC)Oc1nc(Cl)c(Cl)cc1Cl
0.986

Try this compound next: C[C@]12CCC(=O)C=C1CCC1C2[C@@H](O)C[C@@]2(C)C1CC[C@]2(O)C(=O)CO (some centres not stated)
0.999

Try this compound next: C#C[C@]1(OC(C)=O)CCC2C3CCC4=CC(=O)CC[C@@H]4C3CC[C@@]21C (some centres not stated)
0.946

Try this compound next: CCOP(=S)(OCC)Oc1cc(C)nc(C(C)C)n1
0.984

Try this compound next: Cc1cc(C(C)(C)C)c(O)c(C(C)(C)C)c1
0.97
